# Tested on: human neonatal dermal fibroblasts (NDF)
# Assay procedure: Resazurin viability assay, senescent vs proliferating/quiescent human neonatal dermal fibroblasts
# Assay type: cell-based
# Run conditions: Homo sapiens, Fibroblast, 72 h, senescent NDF, bleomycin-induced; 72 hour exposure; resazurin; read-out: IC50 NDFsen.bleo
Assay metric: IC50

// returns reported IC50 for input Cc1ccc(CNc2ncc3c(n2)CC(c2ccccc2)C/C3=N\O)cc1 (centres unmarked) [Example A2.1] < 5 µM

// returns reported IC50 for input CCOC(=O)c1sc(SCc2ccccc2)c2c1CC(c1ccc(F)cc1)CC2=NO (centres unmarked) [Example A1.7] < 2.5 µM

// returns reported IC50 for input COc1ccc(C2CC(=NO)c3c(SCc4ccccc4)sc(C(=O)OCc4ccccc4)c3C2)cc1 (centres unmarked) [Example A1.8] < 10 µM

// returns reported IC50 for input Nc1nc(CCCc2ccccc2)c2c(n1)CC(c1ccccc1)C/C2=N\O (centres unmarked) [Example A2.3] < 20 µM

// returns reported IC50 for input CC1(C)CC(=NO)c2c(SCc3ccccc3)sc(C(=O)NCc3ccccc3)c2C1 [Example A1.4] < 10 µM

// returns reported IC50 for input O=C(Nc1ccccc1)c1cc2c(nc1NCCOc1ccccc1)CC(c1ccccc1)C/C2=N\O (centres unmarked) [Example A3.1] < 2.5 µM

// returns reported IC50 for input CCNC(=O)c1sc(SCc2ccccc2)c2c1CC(c1ccc(OC)cc1)C/C2=N\O (centres unmarked) [Example A1.12] < 5 µM

// returns reported IC50 for input CCOC(=O)c1sc(SCc2ccccc2)c2c1CC(c1ccc(OC)cc1)C/C2=N\O (centres unmarked) [Example A1.1] < 5 µM

* * *

# Test system: mLF primary lung fibroblasts
# Assay procedure: Anti-senescent cytotoxicity, senescent vs proliferating mLF
# Format: cell-based, Mouse
# Run conditions: Mus musculus, Primary lung fibroblast; mLF; senescence induction: Bleomycin; read-out: Activity against Senescent Cells (IC50; uM)
Assay metric: IC50

// returns reported IC50 for input CCOC(=O)c1sc(SCc2ccccc2)c2c1CC(c1ccc(OC)cc1)C/C2=N\O (stereo not shown) 7.1 µM

* * *

Give IC50 for every item shown.
# Tested on: adult rat dermal fibroblasts (RDF)
# Assay procedure: Resazurin viability assay, senescent vs proliferating rat dermal fibroblasts
# Assay type: cell-based
# Run conditions: Rattus norvegicus, Fibroblast, light or radiation study; senescent RDF, irradiation-induced; 72 hour exposure; resazurin; read-out: IC50 RDFsen.irr

// returns reported IC50 for input O/N=C1\CC(c2ccccc2)Cc2nc(NCc3ccccc3)sc21 (centres unmarked) < 10 µM

// returns reported IC50 for input CCOC(=O)c1sc(Sc2ccccc2)c2c1CC(c1ccc(OC)cc1)C/C2=N\O (centres unmarked) < 5 µM

// returns reported IC50 for input COc1ccc(C2C/C(=N\O)c3c(SCc4ccccc4)sc(C(=O)NCc4ccco4)c3C2)cc1 (centres unmarked) < 5 µM

// returns reported IC50 for input COc1ccc(C2CC(=NO)c3c(SCc4ccccc4)sc(C(=O)NCc4cccc(F)c4)c3C2)cc1 (centres unmarked) < 5 µM

// returns reported IC50 for input Cc1ccc(CNc2ncc3c(n2)CC(c2ccccc2)C/C3=N\O)cc1 (centres unmarked) < 5 µM
